The entries below are paired with their reported pIC50.
- Tested on: DOHH2 cells
- procedure_summary: Cell proliferation assay (MTS), DOHH2 cells, 120 h
- Format: cell-based
To interpret pIC50, take it as minus log10 of a concentration measured in moles per litre.

• CC1(C)CCC(CN2CCN(c3ccc(C(=O)NS(=O)(=O)c4cc5c(c([N+](=O)[O-])c4)N[C@@H](CC#N)CO5)c(Oc4cnc5[nH]ccc5c4)c3)CC2)=C(c2ccc(Cl)cc2)C1 [Example 2-115] = 7.42

GET /value?item= CC1(C)CCC(CN2CCN(c3ccc(C(=O)NS(=O)(=O)c4cc5c(c([N+](=O)[O-])c4)N[C@H](C4CCC(O)CC4)CO5)c(Oc4cnc5[nH]ccc5c4)c3)CC2)=C(c2ccc(Cl)cc2)C1 (single isomer, unassigned) [Example 2-240B] &field=pIC50 returns 9.00

Item: CC1(C)CCC(CN2CCN(c3ccc(C(=O)NS(=O)(=O)c4cc5c(c([N+](=O)[O-])c4)N[C@@H](C4CCC(O)CC4)CO5)c(Oc4cnc5[nH]ccc5c4)c3)CC2)=C(c2ccc(Cl)cc2)C1 (some centres unmarked) [Example 2-245B] | pIC50: 9.00

Summary for this molecule, COC1CCC([C@@H]2COc3cc(S(=O)(=O)NC(=O)c4ccc(N5CCN(CC6=C(c7ccc(Cl)cc7)CC(C)(C)CC6)CC5)cc4Oc4cnc5[nH]ccc5c4)cc([N+](=O)[O-])c3N2)CC1 (some centres unmarked) [Example 2-248B] : pIC50 is 7.85

The reported pIC50 of the molecule CC1(C)CCC(CN2CCN(c3ccc(C(=O)NS(=O)(=O)c4cc5c(c([N+](=O)[O-])c4)N[C@@H](CC4CCC(O)CC4)CO5)c(Oc4cnc5[nH]ccc5c4)c3)CC2)=C(c2ccc(Cl)cc2)C1 (single isomer, unassigned) [Example 2-244A] was 8.15

Lab note: CC1(C)CCC(CN2CCN(c3ccc(C(=O)NS(=O)(=O)c4cc5c(c([N+](=O)[O-])c4)N[C@@H](CC4CCC(O)CC4)CO5)c(Oc4cnc5[nH]ccc5c4)c3)CC2)=C(c2ccc(Cl)cc2)C1 (single isomer, unassigned) [Example 2-244B] gave pIC50 of 9.00

The molecule identified as CC1(C)CCC(CN2CCN(c3ccc(C(=O)NS(=O)(=O)c4cc5c(c([N+](=O)[O-])c4)N[C@@H](CCN=S(C)(C)=O)CO5)c(Oc4cnc5[nH]ccc5c4)c3)CC2)=C(c2ccc(Cl)cc2)C1 [Example 2-43] registered its pIC50 at 8.00

// CC1(C)CCC(CN2CCN(c3ccc(C(=O)NS(=O)(=O)c4cc5c(c([N+](=O)[O-])c4)N[C@H](C4CCC(O)CC4)CO5)c(Oc4cnc5[nH]ccc5c4)c3)CC2)=C(c2ccc(Cl)cc2)C1 (single isomer, unassigned) [Example 2-240A] : pIC50 value = 8.30

Quick note, pIC50 for CC1(C)CCC(CN2CCN(c3ccc(C(=O)NS(=O)(=O)c4cc5c(c([N+](=O)[O-])c4)N[C@H](CC4CCC(O)CC4)CO5)c(Oc4cnc5[nH]ccc5c4)c3)CC2)=C(c2ccc(Cl)cc2)C1 (single isomer, unassigned) [Example 2-239B] landed at 9.00

molecule COC1CCC([C@H]2COc3cc(S(=O)(=O)NC(=O)c4ccc(N5CCN(CC6=C(c7ccc(Cl)cc7)CC(C)(C)CC6)CC5)cc4Oc4cnc5[nH]ccc5c4)cc([N+](=O)[O-])c3N2)CC1 (some centres unmarked) [Example 2-247B] , pIC50 observed: 7.44

For CC1(C)CCC(CN2CCN(c3ccc(C(=O)NS(=O)(=O)c4cc5c(c([N+](=O)[O-])c4)N[C@H](CC4CCC(O)CC4)CO5)c(Oc4cnc5[nH]ccc5c4)c3)CC2)=C(c2ccc(Cl)cc2)C1 (single isomer, unassigned) [Example 2-239A] the molecule record lists pIC50 as 8.30
